Biological target: T1, LASV Josiah (lineage IV) glycoprotein, full-length GP (Lassa virus, Josiah strain, UniProt P08669 2-491)
T1 sequence: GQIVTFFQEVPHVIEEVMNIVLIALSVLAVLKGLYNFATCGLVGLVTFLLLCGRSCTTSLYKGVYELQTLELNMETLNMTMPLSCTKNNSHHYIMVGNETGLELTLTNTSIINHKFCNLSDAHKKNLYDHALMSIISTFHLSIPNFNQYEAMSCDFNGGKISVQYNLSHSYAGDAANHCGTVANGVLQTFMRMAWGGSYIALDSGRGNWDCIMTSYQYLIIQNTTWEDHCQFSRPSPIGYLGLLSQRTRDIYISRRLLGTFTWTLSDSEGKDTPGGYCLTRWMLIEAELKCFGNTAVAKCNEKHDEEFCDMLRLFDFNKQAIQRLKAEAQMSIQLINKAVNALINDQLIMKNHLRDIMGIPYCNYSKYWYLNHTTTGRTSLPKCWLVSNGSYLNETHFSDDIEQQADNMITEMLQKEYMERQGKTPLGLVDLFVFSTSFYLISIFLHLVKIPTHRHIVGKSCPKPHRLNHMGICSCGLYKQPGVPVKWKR
Experiment: cell-based or functional assay
Recorded Metric: IC50 (neutralization) (µg/mL)
Answers are plain numbers, in µg/mL.

Fill blank: measured IC50 (neutralization) of the binder 25.6A (antibody, V domains shown) VH: QVQLQESGGGLVKAGGSLRLSCAASGFMFERYSLHWVRQTPGKGLEWVSSISSLSGSHINYADSVKGRFTISRDNAKNSLSLQMNSLRVEDTAIYYCARDRRSGSSPVPLDVWGQGTTVTVSS VL: DLPVLTQPASVSGSPGQSITISCTGTSSDVGAYNYVSWYQQHPGKAPKLIIYEVKIRPSGVSNRFSGSKSGNTASLTISGLQAEDEADYFCSSYSTNSPWVFGGGTKVTVLR is ____.
0.188
